system: K-562 leukemia; assay: NCI tumour cell line growth inhibition, 48 h
test_readout: TGI

Measured TGI, COC(C/C(=C/CO[Si](C(C)C)(C(C)C)C(C)C)C(=O)Nc1ccccc1I)OC : > 100 µM

Measured TGI, Oc1ccc(/C=N/Nc2nc3ccccc3s2)c(O)c1 : > 100 µM

Measured TGI, COc1cccc2c1cc([N+](=O)[O-])c1c(C(=O)O)cc3c(c12)OCO3 : > 100 µM

* * *

Would you kindly list TGI for each of these compounds?
tested on: IGROV1 ovarian; experiment: NCI tumour cell line growth inhibition, 48 h

Measured TGI, CC(C)CC(CNC(Cc1ccc(Cl)cc1)C(N)=O)NC(=O)C(Cc1cnc[nH]1)NC(=O)CNC(=O)C(NC(=O)C(C)NC(=O)C(Cc1c[nH]c2ccccc12)NC(=O)C(CCC(=O)O)NC(=O)C(N)Cc1ccccc1)C(C)C (centres undefined) : > 133 µM

Measured TGI, Cc1c(C2Cc3ccccc3N2C(=O)/C=C\C(=O)O)c2ccccc2n1C (centres undefined) : 70.7 µM

Measured TGI, COc1ccc2c(c1)N(C(C)=O)CN1C(=O)CCC21 (centres undefined) : > 100 µM

Measured TGI, COc1ccc(C2CC(=O)Oc3ccccc3O2)cc1 (centres undefined) : > 100 µM

Measured TGI, COc1ccc(-c2onc(-c3c(C)cc(C)cc3C)c2C2=NCCCN2)cc1 : > 100 µM

Measured TGI, NC(N)=N/N=C/c1cccc(Cl)c1Cl : 25.6 µM

Measured TGI, COc1ccc(CCNCc2cccc(OC)c2OC)cc1OC : > 100 µM

Measured TGI, COc1cc(-c2nn(C(=O)NS(=O)(=O)c3ccc(C)cc3)cc2-c2ccncc2)ccc1Cl : > 100 µM

Measured TGI, C[C@@H]1C[C@@H](O)[C@@]2(O)C13CC(=O)OC(C3)[C@@H](C)[C@@]2(C)CO (some centres undefined) : > 100 µM

Measured TGI, CC(F)(F)c1cc(F)ccc1-c1sc2cc(O)ccc2c1Oc1ccc(/C=C/C(=O)O)cc1 : 29 µM

Measured TGI, c1ccc2[nH]c3[nH]c4[nH]c5ccccc5[nH]c4[nH]c3[nH]c2c1 : > 100 µM

Measured TGI, CC(=O)NCC1(c2ccccc2)CCN(CC2COc3ccccc3O2)CC1 (centres undefined) : > 100 µM

Measured TGI, CCOC(=O)c1nnsc1NC(=O)Nc1ccc(Cl)cc1 : > 100 µM

Measured TGI, CCCCCC(=O)OCC(=O)O[C@@H]1C[C@]2(C(C)C)O[C@@]1(C)[C@@H]1CC[C@@H](C)[C@H]1[C@@H]2OC(=O)/C=C/c1ccccc1 : > 55.8 µM

Measured TGI, C/C(=N\NC(=O)/C(C#N)=C\c1ccc(N(CCC#N)CCC#N)cc1)c1ccccc1 : > 10 µM

Measured TGI, CCc1ccc(/C(C)=N/NC(N)=S)cc1 : > 100 µM

Measured TGI, Cc1[nH]c(=O)nc(CC(O)(c2ccccc2)c2ccccc2)c1-c1ccccc1 : > 100 µM

Measured TGI, COc1ccc(/C=C2\N=C(c3ccccc3)N(Nc3nnc(NN4C(=O)/C(=C/c5ccc(OC)cc5)N=C4c4ccccc4)c4ccccc34)C2=O)cc1 : > 100 µM

Measured TGI, NC(=O)c1csc(CCCCCCc2nc(C(N)=O)cs2)n1 : > 100 µM
